Molecular target: T1, Rpb3 subunit of RNA polymerase II from Saccharomyces cerevisiae (Saccharomyces cerevisiae, UniProt P16370 1-318)
T1 construct: source: purified from S. cerevisiae as 12-subunit Pol II (IgG column, Hi-Trap Heparin, Mono Q)
T1 sequence (looked up): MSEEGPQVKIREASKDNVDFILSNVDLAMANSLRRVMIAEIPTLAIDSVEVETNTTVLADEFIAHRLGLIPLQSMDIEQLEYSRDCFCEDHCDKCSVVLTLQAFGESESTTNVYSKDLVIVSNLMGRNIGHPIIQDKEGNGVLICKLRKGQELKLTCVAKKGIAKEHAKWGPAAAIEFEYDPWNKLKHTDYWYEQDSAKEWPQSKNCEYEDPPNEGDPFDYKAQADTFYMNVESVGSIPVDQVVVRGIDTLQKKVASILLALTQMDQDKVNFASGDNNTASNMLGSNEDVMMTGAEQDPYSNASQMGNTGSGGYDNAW
Test: cryo-EM structure; 12-subunit Pol II (1 uM) assembled with biotin-tagged DNA/RNA scaffold and 5 mM ATP in 20 mM Tris-HCl pH 7.5, 40 mM KCl, 10 mM MgCl2, 5 mM DTT; captured on mspSA affinity grids
Conditions: both partners purified
quantity: binding result

Check out these entries, answers already filled in.
binder	binding result
Rpb12 subunit of RNA polymerase II from Saccharomyces cerevisiae (natural protein, UniProt P40422 1-70, looked up, source: purified from S. cerevisiae as 12-subunit Pol II (IgG column, Hi-Trap Heparin, Mono Q)) MSREGFQIPTNLDAAAAGTSQARTATLKYICAECSSKLSLSRTDAVRCKDCGHRILLKARTKRLVQFEAR	binds
Rpb4 subunit of RNA polymerase II from Saccharomyces cerevisiae (natural protein, UniProt P20433 1-221, looked up, source: purified from S. cerevisiae as 12-subunit Pol II (IgG column, Hi-Trap Heparin, Mono Q)) MNVSTSTFQTRRRRLKKVEEEENAATLQLGQEFQLKQINHQGEEEELIALNLSEARLVIKEALVERRRAFKRSQKKHKKKHLKHENANDETTAVEDEDDDLDEDDVNADDDDFMHSETREKELESIDVLLEQTTGGNNKDLKNTMQYLTNFSRFRDQETVGAVIQLLKSTGLHPFEVAQLGSLACDTADEAKTLIPSLNNKISDDELERILKELSNLETLY	binds
Rpb8 subunit of RNA polymerase II from Saccharomyces cerevisiae (natural protein, UniProt P20436 1-146, looked up, source: purified from S. cerevisiae as 12-subunit Pol II (IgG column, Hi-Trap Heparin, Mono Q)) MSNTLFDDIFQVSEVDPGRYNKVCRIEAASTTQDQCKLTLDINVELFPVAAQDSLTVTIASSLNLEDTPANDSSATRSWRPPQAGDRSLADDYDYVMYGTAYKFEEVSKDLIAVYYSFGGLLMRLEGNYRNLNNLKQENAYLLIRR	binds
Rpb9 subunit of RNA polymerase II from Saccharomyces cerevisiae (natural protein, UniProt P27999 1-122, looked up, source: purified from S. cerevisiae as 12-subunit Pol II (IgG column, Hi-Trap Heparin, Mono Q)) MTTFRFCRDCNNMLYPREDKENNRLLFECRTCSYVEEAGSPLVYRHELITNIGETAGVVQDIGSDPTLPRSDRECPKCHSRENVFFQSQQRRKDTSMVLFFVCLSCSHIFTSDQKNKRTQFS	binds
Rpb7 subunit of RNA polymerase II from Saccharomyces cerevisiae (natural protein, UniProt P34087 1-171, looked up, source: purified from S. cerevisiae as 12-subunit Pol II (IgG column, Hi-Trap Heparin, Mono Q)) MFFIKDLSLNITLHPSFFGPRMKQYLKTKLLEEVEGSCTGKFGYILCVLDYDNIDIQRGRILPTDGSAEFNVKYRAVVFKPFKGEVVDGTVVSCSQHGFEVQVGPMKVFVTKHLMPQDLTFNAGSNPPSYQSSEDVITIKSRIRVKIEGCISQVSSIHAIGSIKEDYLGAI	binds

# get_value(readout='binding result', item= Rpb5 subunit of RNA polymerase II from Saccharomyces cerevisiae (natural protein, UniProt P20434 1-215, looked up, source: purified from S. cerevisiae as 12-subunit Pol II (IgG column, Hi-Trap Heparin, Mono Q)) MDQENERNISRLWRAFRTVKEMVKDRGYFITQEEVELPLEDFKAKYCDSMGRPQRKMMSFQANPTEESISKFPDMGSLWVEFCDEPSVGVKTMKTFVIHIQEKNFQTGIFVYQNNITPSAMKLVPSIPPATIETFNEAALVVNITHHELVPKHIRLSSDEKRELLKRYRLKESQLPRIQRADPVALYLGLKRGEVVKIIRKSETSGRYASYRICM )
binds
